- tested-system: ATF5 (Homo sapiens)
- Construct: made in house
- Sequence (Q9Y2D1 208-271 limits assumed): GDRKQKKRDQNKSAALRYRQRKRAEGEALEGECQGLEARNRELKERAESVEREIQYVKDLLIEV
- measurement-notes: Direct-binding FRET assay
- cond: Kd, 37°C; C-terminal rhodamine design; mean or single
- Description: The direct binding assay was performed manually in 384-well plates and is similar to a previously described assay. Wells were filled with 20 μL of 1 mM TCEP-HCl. […] Briefly, the Kd of the designed peptide homodimer was experimentally determined and used with previously determined target homodimer Kd values to determine the heterodimer Kd. […] A minimum 15% change in the donor fluorescence upon titrating the acceptor peptide from 0 to 1000 nM was required for a fit to be attempted. […]
Where no end group is shown, it is not given here.
experimental-readout: Kd

Query: Note down Kd recorded for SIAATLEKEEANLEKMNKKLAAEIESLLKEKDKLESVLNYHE [JUN-d1]
Reply: > 1000 nM
